meta.source: ChEMBL document CHEMBL3885861

# Species: Rattus norvegicus
# PROTOCOL_DETAILS: Open TG-GATES - Regimen: Daily Repeat
# Type: toxicity, organism-based, Sprague-Dawley
# Design: regimen Daily Repeat, gender Male, age 6 weeks
# TEST_SETTINGS: in vivo, po, 0 mg/kg, […], tissue Plasma, route gavage, dose level Control, time 14 day
Classify by measured TBIL: T if it is equal to or exceeds 0.05 mg/dL, F if it is smaller.

MOLECULE | GROUP
CS(=O)(=O)Nc1ccc([N+](=O)[O-])cc1Oc1ccccc1 [NIMESULIDE] | T
COc1ccc(Cl)cc1C(=O)NCCc1ccc(S(=O)(=O)NC(=O)NC2CCCCC2)cc1 [GLYBURIDE] | T
O=C1NC(=O)C(c2ccccc2)(c2ccccc2)N1 | F
COc1ccc(O)c(C(C)(C)C)c1.COc1ccc(O)cc1C(C)(C)C [BUTYLATED HYDROXYANISOLE] | F
Cc1cccc(Nc2cc(Cl)nc(SCC(=O)O)n2)c1C | F
O=C1CN(/N=C/c2ccc(-c3ccc([N+](=O)[O-])cc3)o2)C(O)=N1 | T
Cc1cnc(NC(=O)C2=C(O)c3ccccc3S(=O)(=O)N2C)s1 | T
Cn1c(=O)c2c(ncn2C)n(C)c1=O | F

Is TBIL at least 0.05 mg/dL? Consider "C=CCO"
T

Is TBIL at least 0.05 mg/dL? Consider O=P1(N(CCCl)CCCl)NCCCO1 (stereo unspecified) [CYCLOPHOSPHAMIDE ANHYDROUS]
F

Is TBIL at least 0.05 mg/dL? Consider "Cn1cnc([N+](=O)[O-])c1Sc1ncnc2nc[nH]c12"
F

* * *

# Organism: Rattus norvegicus
# PROTOCOL_DETAILS: Open TG-GATES - Regimen: Single
# Assay type: toxicity, organism-based, Sprague-Dawley
# Set-up: regimen Single, gender Male, age 6 weeks
# TEST_SETTINGS: in vivo, po, 0 mg/kg, 24 h, tissue Blood, route gavage, dose level Control
Documented Plat across a set of compounds
Provide only the numeric value, understood in x10_4/uL.

COMPOUND | Plat [x10_4/uL]
Cn1cnc([N+](=O)[O-])c1Sc1ncnc2nc[nH]c12 [AZATHIOPRINE] | 117.2

Return Plat (reported value) for this compound: CS(=O)(=O)Nc1ccc([N+](=O)[O-])cc1Oc1ccccc1 [NIMESULIDE]
118.1

Return Plat (reported value) for this compound: COc1ccc(O)c(C(C)(C)C)c1.COc1ccc(O)cc1C(C)(C)C [BUTYLATED HYDROXYANISOLE]
136.6

Return Plat (reported value) for this compound: Cc1cccc(Nc2cc(Cl)nc(SCC(=O)O)n2)c1C [PIRINIXIC ACID]
112.5

Return Plat (reported value) for this compound: C=CCO [ALLYL ALCOHOL]
140

* * *

# Organism: Rattus norvegicus
# PROTOCOL_DETAILS: Open TG-GATES - Regimen: Daily Repeat
# Format: toxicity, organism-based, Sprague-Dawley
# Set-up: regimen Daily Repeat, gender Male, age 6 weeks
# TEST_SETTINGS: in vivo, po, 0 mg/kg, […], tissue Plasma, route gavage, dose level Control, time 14 day
MEASURE_NAME: DBIL (mg/dL)
Provide only the numeric value, understood in mg/dL.

Below, 10 molecules whose answers are already recorded.
MOLECULE | REPORTED
Cc1cccc(Nc2cc(Cl)nc(SCC(=O)O)n2)c1C [PIRINIXIC ACID] | 0.016
Cc1cnc(NC(=O)C2=C(O)c3ccccc3S(=O)(=O)N2C)s1 [MELOXICAM] | 0.094
Cn1c(=O)c2c(ncn2C)n(C)c1=O [CAFFEINE] | 0
O=C1NC(=O)C(c2ccccc2)(c2ccccc2)N1 [PHENYTOIN] | 0
Cn1cnc([N+](=O)[O-])c1Sc1ncnc2nc[nH]c12 [AZATHIOPRINE] | 0
C=CCO [ALLYL ALCOHOL] | 0.072
COc1ccc(Cl)cc1C(=O)NCCc1ccc(S(=O)(=O)NC(=O)NC2CCCCC2)cc1 [GLYBURIDE] | 0.1
COc1ccc(O)c(C(C)(C)C)c1.COc1ccc(O)cc1C(C)(C)C [BUTYLATED HYDROXYANISOLE] | 0.018
O=C1CN(/N=C/c2ccc(-c3ccc([N+](=O)[O-])cc3)o2)C(O)=N1 [DANTROLENE] | 0.012
CS(=O)(=O)Nc1ccc([N+](=O)[O-])cc1Oc1ccccc1 [NIMESULIDE] | 0.002

Read the next record carefully.
Return DBIL (reported value) for this molecule: O=P1(N(CCCl)CCCl)NCCCO1 (stereo unspecified) [CYCLOPHOSPHAMIDE ANHYDROUS]
0

* * *

Documented PL across a set of compounds
# Species: Rattus norvegicus
# PROTOCOL_DETAILS: Open TG-GATES - Regimen: Single
# Format: toxicity, organism-based, Sprague-Dawley
# Design: regimen Single, gender Male, age 6 weeks
# TEST_SETTINGS: in vivo, po, 0 mg/kg, 3 h, tissue Plasma, route gavage, dose level Control
Provide only the numeric value, understood in mg/dL.

Below, 4 compounds whose answers are already recorded.
COMPOUND | PL / mg/dL
COc1ccc(O)c(C(C)(C)C)c1.COc1ccc(O)cc1C(C)(C)C [BUTYLATED HYDROXYANISOLE] | 153.8
Cc1cccc(Nc2cc(Cl)nc(SCC(=O)O)n2)c1C | 166.4
Cn1cnc([N+](=O)[O-])c1Sc1ncnc2nc[nH]c12 | 129.6
CS(=O)(=O)Nc1ccc([N+](=O)[O-])cc1Oc1ccccc1 [NIMESULIDE] | 133.6

Return PL (reported value) for this compound: "O=C1CN(/N=C/c2ccc(-c3ccc([N+](=O)[O-])cc3)o2)C(O)=N1"
134.8

* * *

# Organism: Rattus norvegicus
# PROTOCOL_DETAILS: Open TG-GATES - Regimen: Daily Repeat
# Format: toxicity, organism-based, Sprague-Dawley
# Parameters: regimen Daily Repeat, gender Male, age 6 weeks
# TEST_SETTINGS: in vivo, po, 0 mg/kg, […], tissue Plasma, route gavage, dose level Control, time 14 day
Documented TG across a set of molecules
Provide only the numeric value, understood in mg/dL.

MOLECULE | U | REPORTED
Cn1cnc([N+](=O)[O-])c1Sc1ncnc2nc[nH]c12 | mg/dL | 146.2

Return TG (reported value) for this molecule: "Cn1c(=O)c2c(ncn2C)n(C)c1=O"
150.2

Return TG (reported value) for this molecule: "Cc1cnc(NC(=O)C2=C(O)c3ccccc3S(=O)(=O)N2C)s1"
113.2

Return TG (reported value) for this molecule: O=P1(N(CCCl)CCCl)NCCCO1 (stereo unspecified) [CYCLOPHOSPHAMIDE ANHYDROUS]
147.4

Return TG (reported value) for this molecule: COc1ccc(O)c(C(C)(C)C)c1.COc1ccc(O)cc1C(C)(C)C [BUTYLATED HYDROXYANISOLE]
133.8

Return TG (reported value) for this molecule: "Cc1cccc(Nc2cc(Cl)nc(SCC(=O)O)n2)c1C"
117.4

* * *

# Organism: Rattus norvegicus
# PROTOCOL_DETAILS: Open TG-GATES - Regimen: Single
# Type: toxicity, organism-based, Sprague-Dawley
# Design: regimen Single, gender Male, age 6 weeks
# TEST_SETTINGS: in vivo, po, 0 mg/kg, 9 h, tissue Plasma, route gavage, dose level Control
Documented K across a set of compounds
Provide only the numeric value, understood in meq/L.

COMPOUND | MEASURE_NAME | U | REPORTED
Cc1cnc(NC(=O)C2=C(O)c3ccccc3S(=O)(=O)N2C)s1 | K | meq/L | 4
C=CCO | K | meq/L | 3.6
O=C1CN(/N=C/c2ccc(-c3ccc([N+](=O)[O-])cc3)o2)C(O)=N1 | K | meq/L | 4.9
COc1ccc(O)c(C(C)(C)C)c1.COc1ccc(O)cc1C(C)(C)C [BUTYLATED HYDROXYANISOLE] | K | meq/L | 4.1
CS(=O)(=O)Nc1ccc([N+](=O)[O-])cc1Oc1ccccc1 [NIMESULIDE] | K | meq/L | 5
Cc1cccc(Nc2cc(Cl)nc(SCC(=O)O)n2)c1C | K | meq/L | 3.6

Return K (reported value) for this compound: "Cn1cnc([N+](=O)[O-])c1Sc1ncnc2nc[nH]c12"
4.3

Return K (reported value) for this compound: "O=C1NC(=O)C(c2ccccc2)(c2ccccc2)N1"
4.2

* * *

Documented RBC across a set of molecules
# Species: Rattus norvegicus
# PROTOCOL_DETAILS: Open TG-GATES - Regimen: Single
# Type: toxicity, organism-based, Sprague-Dawley
# Parameters: regimen Single, gender Male, age 6 weeks
# TEST_SETTINGS: in vivo, po, 0 mg/kg, 24 h, tissue Blood, route gavage, dose level Control
Provide only the numeric value, understood in x10_4/ul.

Return RBC (reported value) for this molecule: C=CCO [ALLYL ALCOHOL]
640.6

Return RBC (reported value) for this molecule: COc1ccc(O)c(C(C)(C)C)c1.COc1ccc(O)cc1C(C)(C)C [BUTYLATED HYDROXYANISOLE]
620.2

Return RBC (reported value) for this molecule: CS(=O)(=O)Nc1ccc([N+](=O)[O-])cc1Oc1ccccc1 [NIMESULIDE]
590.2

Return RBC (reported value) for this molecule: Cc1cccc(Nc2cc(Cl)nc(SCC(=O)O)n2)c1C [PIRINIXIC ACID]
614
